molecular target: hERG (KCNH2) (Homo sapiens, UniProt Q12809); assay: Inhibition of human ERG at 11 uM
Sequence (Q12809 whole entry): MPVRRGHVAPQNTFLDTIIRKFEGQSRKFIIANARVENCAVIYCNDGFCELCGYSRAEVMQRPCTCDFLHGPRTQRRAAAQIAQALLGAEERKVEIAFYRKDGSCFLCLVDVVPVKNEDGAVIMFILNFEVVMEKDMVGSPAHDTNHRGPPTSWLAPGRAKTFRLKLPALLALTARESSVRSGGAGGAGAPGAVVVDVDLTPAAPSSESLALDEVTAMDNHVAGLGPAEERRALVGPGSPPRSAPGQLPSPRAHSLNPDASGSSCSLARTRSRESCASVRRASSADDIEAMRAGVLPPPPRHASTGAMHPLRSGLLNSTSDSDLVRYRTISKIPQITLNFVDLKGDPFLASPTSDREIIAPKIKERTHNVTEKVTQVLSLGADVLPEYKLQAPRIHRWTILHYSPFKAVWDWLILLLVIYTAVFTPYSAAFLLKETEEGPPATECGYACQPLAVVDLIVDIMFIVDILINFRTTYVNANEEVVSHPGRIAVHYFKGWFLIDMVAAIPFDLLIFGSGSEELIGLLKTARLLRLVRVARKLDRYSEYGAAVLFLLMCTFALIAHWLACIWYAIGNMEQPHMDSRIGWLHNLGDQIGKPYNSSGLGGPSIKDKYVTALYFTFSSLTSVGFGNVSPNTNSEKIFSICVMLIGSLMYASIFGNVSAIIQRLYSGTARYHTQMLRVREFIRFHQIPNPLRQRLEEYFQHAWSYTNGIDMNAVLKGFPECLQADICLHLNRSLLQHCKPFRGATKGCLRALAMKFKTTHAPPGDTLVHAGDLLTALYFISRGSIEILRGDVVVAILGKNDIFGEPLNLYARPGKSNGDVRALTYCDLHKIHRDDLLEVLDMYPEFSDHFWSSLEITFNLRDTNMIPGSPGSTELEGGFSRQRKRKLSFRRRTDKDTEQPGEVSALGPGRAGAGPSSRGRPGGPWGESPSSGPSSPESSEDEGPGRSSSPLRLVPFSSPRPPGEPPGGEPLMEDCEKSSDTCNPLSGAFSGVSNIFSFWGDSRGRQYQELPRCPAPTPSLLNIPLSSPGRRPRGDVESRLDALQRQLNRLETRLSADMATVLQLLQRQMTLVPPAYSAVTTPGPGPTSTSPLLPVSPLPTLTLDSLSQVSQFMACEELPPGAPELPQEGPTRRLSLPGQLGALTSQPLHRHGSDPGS
Parameter: inhibition at 11 µM. Scope: all listed entries.

{"columns": ["compound", "assayed target", "inhibition at 11 µM (%)"],
 "data": [
  ["CCS(=O)(=O)c1ccc([C@@H](NC(C)=O)C(=O)Nc2cc(-c3cccnc3OCc3ccc(OC(F)(F)F)cc3)cs2)cc1", "hERG (KCNH2) (Homo sapiens, UniProt Q12809)", 8],
  ["CCS(=O)(=O)c1ccc(CC(=O)Nc2cc(-c3cccnc3Oc3ccc(OC(F)(F)F)cc3)cs2)cc1", "hERG (KCNH2) (Homo sapiens, UniProt Q12809)", 14],
  ["CCS(=O)(=O)c1ccc(C(NC(C)=O)C(=O)Nc2cc(-c3cc(C#N)cnc3OCC(F)(F)F)cs2)cc1 (stereo unspecified)", "hERG (KCNH2) (Homo sapiens, UniProt Q12809)", 3],
  ["CCS(=O)(=O)c1ccc(CC(=O)Nc2cc(-c3cc(C#N)cc(F)c3OC)cs2)cc1", "hERG (KCNH2) (Homo sapiens, UniProt Q12809)", 43],
  ["CCS(=O)(=O)c1ccc(CC(=O)Nc2cc(-c3cccnc3OCc3ccc(OC(F)(F)F)cc3)cs2)cc1", "hERG (KCNH2) (Homo sapiens, UniProt Q12809)", 0],
  ["CCS(=O)(=O)c1ccc(CC(=O)Nc2cc(-c3cc(C#N)cnc3OCC(F)(F)F)cs2)cc1", "hERG (KCNH2) (Homo sapiens, UniProt Q12809)", 47]
]}
